Would you mind telling me the reported melting point of each entry?

Incoming: Bench note: what melting point did CN(C)c1cccc2c(S(=O)(=O)NCCCCC(NC(=O)c3ccc(C(=O)c4ccccc4)cc3)C(=O)N[C@@H](CCCCNC(=O)CCCC[C@@H]3SC[C@H]4NC(=O)N[C@@H]34)C(=O)OCc3cn(CCOCCOCCOCCOC4CCN(C(=O)[C@H](Cc5ccc(F)cc5)NC(=O)c5cc6cc(Cl)ccc6[nH]5)CC4)nn3)cccc12 (stereo partly shown) show?
Outgoing: 159 to 161 °C

Incoming: Moving on to CN(C)c1cccc2c(S(=O)(=O)NCCCC[C@H](NC(=O)c3ccc(C(=O)c4ccccc4)cc3)C(=O)OCc3cn(CCOCCOCCOCCOC4CCN(C(=O)[C@H](Cc5ccc(F)cc5)NC(=O)c5cc6cc(Cl)ccc6[nH]5)CC4)nn3)cccc12
Outgoing: 151 to 153 °C

Incoming: Moving on to [N-]=[N+]=NCC(=O)NCCCC[C@H](NC(=O)c1ccc(C(=O)c2ccccc2)cc1)C(=O)OCc1cn(CCOCCOCCOCCOC2CCN(C(=O)[C@H](Cc3ccc(F)cc3)NC(=O)c3cc4cc(Cl)ccc4[nH]3)CC2)nn1
Outgoing: 113 to 115 °C

Incoming: Moving on to O=C(N[C@@H](Cc1ccc(F)cc1)C(=O)N1CCC(OCCOCCOCCOCCO)CC1)c1cc2cc(Cl)ccc2[nH]1
Outgoing: 103 to 105 °C

Source listed as paper PMC6413153.
